tested system: T1, 4H2223-bN
T1 chain: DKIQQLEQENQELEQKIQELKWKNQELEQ
protocol: two-hybrid library CCNG1;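 further: natural log of median RNA to DNA barcode read ratio; higher means stronger binding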
Under this convention, Fulfilled denotes interaction score strictly below -0.2 and Not fulfilled denotes interaction score at or above -0.2.

Lookup: API: query returns whether the binder falls strictly under -0.2 in interaction score. Query: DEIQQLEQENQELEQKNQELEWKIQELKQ [4H182-bN]
Found: Not fulfilled

Lookup: API: query returns whether the binder falls strictly under -0.2 in interaction score. Query: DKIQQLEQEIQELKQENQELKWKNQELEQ [4H2143-bN]
Found: Not fulfilled

Lookup: API: query returns whether the binder falls strictly under -0.2 in interaction score. Query: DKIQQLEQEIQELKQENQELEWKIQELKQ [4H2134-bN]
Found: Not fulfilled

Lookup: API: query returns whether the binder falls strictly under -0.2 in interaction score. Query: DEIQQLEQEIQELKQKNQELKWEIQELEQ [4H121-bN]
Found: Fulfilled

Lookup: API: query returns whether the binder falls strictly under -0.2 in interaction score. Query: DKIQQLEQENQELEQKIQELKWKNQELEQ [4H2223-bN]
Found: Not fulfilled
